Measured Kd, listed per entry.
# Tested on: GDP-bound KRAS wild-type protein (Homo sapiens)
# Sequence (P01116 whole entry): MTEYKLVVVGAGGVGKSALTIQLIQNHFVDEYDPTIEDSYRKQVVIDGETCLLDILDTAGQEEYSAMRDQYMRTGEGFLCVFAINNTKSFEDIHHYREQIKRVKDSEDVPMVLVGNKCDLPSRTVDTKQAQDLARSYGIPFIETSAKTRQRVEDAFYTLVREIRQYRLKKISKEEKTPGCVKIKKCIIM
# Test name: Binding to KRAS by surface plasmon resonance (SPR), Single Cycle Kinetics
# Condition parameters: SPR, Single Cycle Kinetics, GDP-bound KRAS wild-type protein; read-out: KRAS KD

Smiles entry	Kd
CC[C@H](C)[C@@H]1NC(=O)[C@H](CC(C)C)N(C)C(=O)C[C@@H](C(=O)N(C)CC)N(C)C(=O)[C@H](C2CCCC2)N(C)C(=O)C2(CCC2)NC(=O)[C@@H]2C[C@@H](C)CN2C(=O)[C@H](CCc2ccc(C(F)(F)F)c(OC)c2)NC(=O)CN(C)C(=O)[C@H](Cc2ccc(C)cc2)N2CC/C=C\C[C@@H](C2=O)N(C)C(=O)CN(C)C1=O	170 pM
CC[C@H](C)[C@@H]1NC(=O)[C@H](CC)N(C)C(=O)C[C@@H](C(=O)N(C)C)N(C)C(=O)[C@H](C2CCCC2)N(C)C(=O)C2(CCC2)N(C)C(=O)[C@@H]2CCCN2C(=O)[C@H](CCc2cc(F)c(C(F)(F)F)c(F)c2)NC(=O)CN(C)C(=O)[C@H](Cc2ccc(C)cc2)N2CC/C=C\C[C@@H](C2=O)N(C)C(=O)[C@@H]2CCCN2C1=O	140 pM
C#CCN1CC(=O)N(C)[C@H]2C/C=C\CCN(C2=O)[C@@H](Cc2ccc(C)cc2)C(=O)N(C)CC(=O)N[C@@H](CCc2cc(F)c(C(F)(F)F)c(F)c2)C(=O)N2C[C@H](OCC)C[C@H]2C(=O)NC2(CC(C)(C)C2)C(=O)N(C)[C@@H](C2CCCC2)C(=O)N(C)[C@H](C(=O)N(C)C)CC(=O)N(C)[C@@H](CCC)C(=O)N[C@@H]([C@@H](C)CC)C1=O	150 pM
CC[C@H](C)[C@@H]1NC(=O)[C@H](CC(C)C)N(C)C(=O)C[C@@H](C(=O)N(C)C)N(C)C(=O)[C@H](C2CCCC2)N(C)C(=O)C2(CCC2)NC(=O)[C@@H]2C[C@@H](C)CN2C(=O)[C@H](CCc2cc(F)c(C(F)(F)F)c(F)c2)NC(=O)CN(C)C(=O)[C@H](Cc2ccc(C)cc2)N2CC/C=C\C[C@@H](C2=O)N(C)C(=O)CN(C)C1=O	93 pM
CCO[C@@H]1C[C@H]2C(=O)NC3(CCC3)C(=O)N(C)[C@@H](C(CC)CC)C(=O)N(C)[C@H](C(=O)N3CCCC3)CC(=O)N(C)[C@H]3CCCC/C=C/c4ccc(cc4)C[C@@H](C(=O)N(C)CC(=O)N[C@@H](CCc4ccc(Cl)c(Cl)c4)C(=O)N2C1)N1CC/C=C\C[C@@H](C1=O)N(C)C(=O)CN(C)C(=O)[C@H]([C@@H](C)CC)NC3=O	180 pM
CCO[C@@H]1C[C@H]2C(=O)NC3(CC(C)(C)C3)C(=O)N(C)[C@@H](C3CCCC3)C(=O)N(C)[C@H](C(=O)N(C)CC)CC(=O)N(C)[C@@H](C(C)C)C(=O)N[C@@H]([C@@H](C)CC)C(=O)N(C)CC(=O)N(C)[C@H]3C/C=C\CCN(C3=O)[C@@H](Cc3ccc(C(F)(F)F)cc3)C(=O)N(C)CC(=O)N[C@@H](CCc3ccc(C(F)(F)F)c(OC)c3)C(=O)N2C1	150 pM
